- protocol_notes: gradient 5% acetonitrile 3 min, to 50% in 2 min, to 85% in 15 min, held 3 min, 100 µL/min
- test_conditions: column: Zorbax Extend-C18 2.1 x 50 mm; eluents: water / acetonitrile, 0.1% formic acid
Give yes when the value for RP-LC retention time is at least 800 s. Give no when it is less.

compound | assigned_category
O=S(=O)(c1ccc(-c2nnc(C3CC3)o2)o1)N1CCN(c2ccccn2)CC1 | no
COc1ccc(-c2noc(COC(=O)C3=CN(C)S(=O)(=O)N=C3C)n2)cc1 | yes
N#Cc1ccc(C(=O)NC2CCN(C(=O)C3CC3)C2)cc1 (stereo not drawn) | no
O=C(Cc1ccccc1Cl)NCCn1cnc(-c2ccccc2)cc1=O | no
Cc1c2c(nn1-c1ccc(SCc3ccc(F)cc3)nn1)CCC2 | yes
CCn1nnc2c(N3CCN(S(=O)(=O)c4cccc(C(F)(F)F)c4)CC3)ncnc21 | yes
COC(=O)c1ccc(C(=O)OC)c(NC(=O)N2CCC(CN3CCC(C)CC3)CC2)c1 | no
CCOC(=O)c1sc2nc(NC(=O)Cc3ccccc3)sc2c1C | yes
COc1ccccc1CNC(=O)c1nnc(-c2ccc(S(=O)(=O)N3CCC(C)CC3)cc2)o1 | yes
CCCCC(=O)N(C)CCc1noc(-c2ccc(C(=O)N3CCOCC3)cc2)n1 | no

* * *

- protocol_notes: gradient 5% acetonitrile 3 min, to 50% in 2 min, to 85% in 15 min, held 3 min, 100 µL/min
- test_conditions: column: Zorbax Extend-C18 2.1 x 50 mm; eluents: water / acetonitrile, 0.1% formic acid
Recorded RP-LC retention time by entry

compound | RP-LC retention time / s
O=C(COc1ccccc1Cl)NCCCn1nc(-c2ccc(F)cc2)ccc1=O | 807
CC(Oc1ccc(=O)n(-c2ccc(F)cc2)n1)C(=O)Nc1ccc(F)c(F)c1 (stereo not drawn) | 816
COc1ccc(C(=O)N2CCN(c3ccc(=O)n(-c4cccc(Cl)c4)n3)CC2)cc1OC | 784

* * *

Measured RP-LC retention time, listed per entry for reference.
- protocol_notes: gradient 5% acetonitrile 3 min, to 50% in 2 min, to 85% in 15 min, held 3 min, 100 µL/min
- test_conditions: column: Zorbax Extend-C18 2.1 x 50 mm; eluents: water / acetonitrile, 0.1% formic acid
reported_endpoint: RP-LC retention time (s)

compound | obs_value
CC12C(=O)OC(=O)C1(C)C1CCC2O1 (stereo not drawn) | 813
Cc1cc(NC(=O)c2cc(Cl)sc2Cl)n(C(C)C)n1 | 810
O=S(=O)(Nc1cc(-c2ccoc2)no1)c1ccc(F)cc1F | 806

* * *

Listing: RP-LC retention time of selected compounds
- protocol_notes: gradient 5% acetonitrile 3 min, to 50% in 2 min, to 85% in 15 min, held 3 min, 100 µL/min
- test_conditions: column: Zorbax Extend-C18 2.1 x 50 mm; eluents: water / acetonitrile, 0.1% formic acid

compound | RP-LC retention time
CCCCNC(=O)C1CCCN(c2nnc(C)c3c(C)n(-c4ccccc4)nc23)C1 (stereo unspecified) | 686 s
O=C([C@@H]1C[C@H](F)CN1S(=O)(=O)c1cccc(F)c1)N1CCOCC1 | 676 s
CCn1c(CCNC(=O)c2ccc(C)cc2C)nc2cccnc21 | 694 s
O=C(NCc1ccccc1OC(F)(F)F)c1ccc(OCC(=O)C2CC2)cc1 | 876 s
CCOC(=O)N1CCN(Cc2nc(-c3ccc(N4CCCC(C)C4)nc3)no2)CC1 (stereo unspecified) | 855 s
Cc1ccc(-c2ncc(C(=O)N(C)C)c(-c3ccncc3)n2)cc1 | 754 s

* * *

- protocol_notes: gradient 5% acetonitrile 3 min, to 50% in 2 min, to 85% in 15 min, held 3 min, 100 µL/min
- test_conditions: column: Zorbax Extend-C18 2.1 x 50 mm; eluents: water / acetonitrile, 0.1% formic acid
reported_endpoint: RP-LC retention time (s)

structure_smiles | obs_value
CCOC(=O)CCNC(=O)N1CCC(N2CCN(Cc3ccc(C)cc3)C(=O)C2=O)CC1 | 681
CCOC(=O)c1c(C)oc2nc(C)nc(NCc3ccccn3)c12 | 683
Nc1nc(N2CCN(c3ccccn3)CC2)ncc1C(=O)Nc1ccccc1 | 585
O=C1NCCCn2cc(S(=O)(=O)NCc3cccc(C(F)(F)F)c3)cc21 | 718
COCCNC(=O)c1cc2c(n(-c3ccc(C(C)C)cc3)c1=O)CCCC2=O | 872
CCn1cc(C(=O)NCc2ccc(C)cc2)c(S(=O)(=O)N2CCSCC2)n1 | 944
COc1cc(S(N)(=O)=O)c(OC)cc1N | 616
CCn1cc(S(=O)(=O)Nc2cccc(F)c2)c2cccnc21 | 817
COCc1cc2nn(CC(=O)Nc3ccc(F)cc3C)c(=O)n2c(-c2ccccc2)n1 | 826
CCc1nc2c(NC(=O)c3cccc(Br)c3)cccn2n1 | 951
CCS(=O)(=O)N1CCC2(CC1)NC(=O)N(Cc1ccc(Cl)cc1)C2=O | 767
CCOc1ccc(-c2nc3ncccn3c2NCc2ccc(F)cc2)cc1 | 759
Cc1cc(OCC(=O)Nc2c(C)cccc2C)nc(N2CCN(c3ccccc3)CC2)n1 | 861
COc1cncc(C(=O)Nc2cc(F)ccc2Cl)c1 | 766

* * *

- protocol_notes: gradient 5% acetonitrile 3 min, to 50% in 2 min, to 85% in 15 min, held 3 min, 100 µL/min
- test_conditions: column: Zorbax Extend-C18 2.1 x 50 mm; eluents: water / acetonitrile, 0.1% formic acid
Binary call on RP-LC retention time with cut-off 800 s: strictly below means fulfilled, and equality or higher means not fulfilled.

compound | assigned_category
Cc1cc(C)cc(-c2nnc(Cc3nc(-c4cccc(F)c4)no3)o2)c1 | not fulfilled
COc1cc(CNC(=O)C2CCN(c3nc(C4CCC4)nc4csc(C)c34)CC2)cc(OC)c1 | fulfilled
CCN1C(=O)COc2ccc(-c3noc(-c4cccc(OC)c4OC)n3)cc21 | not fulfilled
Cc1sc(-c2cc(C(F)(F)F)[nH]n2)cc1S(=O)(=O)NC1CCCCC1 | not fulfilled
COc1ccc(NC2=C(c3ccccc3)C(=O)N(Cc3ccccc3)C2=O)cc1 | not fulfilled
CC(C)CC(=O)NC(Cc1ccccc1)c1nnc(N2CCN(C)CC2)o1 (configuration not stated) | fulfilled
O=C1c2ccccc2C(=O)c2c1cccc2N1CCCC(CO)C1 (configuration not stated) | fulfilled
COc1ccc(-c2c(C(=O)O)nnn2-c2ccc(OC)c(OC)c2)cc1 | fulfilled
Cc1ccc(-c2nc3ncccn3c2Nc2ccc(C)c(C)c2)cc1 | not fulfilled
COc1ccc(-c2nc3ccccc3c3nnc(SCc4cn5ccccc5n4)n23)cc1 | fulfilled
Cn1c(SCC(=O)c2ccc(F)cc2)nnc1-c1ccncc1 | fulfilled
C[C@H]1C[C@H]2[C@@H]3CCC4=CC(=O)C=C[C@]4(C)[C@H]3C(=O)C[C@]2(C)[C@@]1(O)C(=O)CO | fulfilled
CCNc1cc(N2CCC(CCC(=O)N3CCCC3)CC2)ncn1 | fulfilled
CC(C)(C)CC(=O)Nc1ccc2c(c1)N(C(=O)c1ccco1)CCC2 | not fulfilled
CCCN(CC1CC1)C(=O)CCC[C@@H]1[C@H]2CCCN3CCC[C@@H](CN1C(C)=O)[C@@H]23 | fulfilled
COC(=O)c1cc2c(=O)n(CCc3c[nH]c4ccc(OC)cc34)ccc2nc1C | fulfilled
O=C(c1cn(-c2ccc(-c3nc(C4CC4)no3)cn2)cn1)N1CCCCC1 | not fulfilled
C=CCNc1c(C(=O)OC)c(=O)[nH]c2c(Cl)cccc12 | fulfilled
CN(Cc1ccco1)C(=O)c1ccc2ccnc(N3CCN(c4ccc(Cl)cc4)CC3)c2c1 | not fulfilled
O=C(NCCc1c[nH]c2ccccc12)c1cc(=O)c(OCc2ccc(F)cc2)co1 | fulfilled

* * *

- protocol_notes: gradient 5% acetonitrile 3 min, to 50% in 2 min, to 85% in 15 min, held 3 min, 100 µL/min
- test_conditions: column: Zorbax Extend-C18 2.1 x 50 mm; eluents: water / acetonitrile, 0.1% formic acid

compound | RP-LC retention time (s)
Cn1c(=O)c2nc(S(=O)(=O)CCC(=O)Nc3ccc(Cl)cc3)n(C)c2n(C)c1=O | 741
CCOc1ccccc1C(=O)N1CCC2(CC1)NCc1ccccc1-n1ccnc12 | 572
N#Cc1cccc(CN2CCC3(CCC3O)CC2)c1 (configuration not stated) | 565
Cc1n[nH]c(C)c1S(=O)(=O)N1CCC(c2nnc(C3CC3)s2)CC1 | 623
COC(=O)c1ccc(CSc2nnc(N3CCN(c4ccccc4OC)CC3)s2)o1 | 894
CCN1C(=O)c2ccccc2Oc2ccc(C(=O)NC3CC3)cc21 | 751
Cc1c(-c2nsc(Nc3ccccc3)n2)nnn1-c1cccc(Cl)c1 | 1070
COC(=O)c1c(NC(=O)c2cnn(-c3ccccc3)c2C)sc2c1CCN(C(C)=O)C2 | 812
CCOc1ccc2cccc(NC(=O)C3CCN(S(C)(=O)=O)CC3)c2n1 | 864
Cc1ccccc1S(=O)(=O)N1[C@H]2CC[C@@H]1c1cnc(-c3ccccc3)nc1C2 | 1140
CCS(=O)(=O)N1CCCC(c2nc(C(C)C)no2)CCNC(=O)CC1 (configuration not stated) | 686
Cc1cc(Cl)ccc1NC(=O)Cn1nc(C(=O)N2CCCCC2)c2ccccc21 | 778

src = the METLIN SMRT retention time set (Domingo-Almenara et al. 2019)
